The measurements presented in this section are drawn from ChEMBL document CHEMBL1142330.

Molecular target: Peroxisome proliferator-activated receptor alpha (Homo sapiens)
Assay: Inhibition of PPARalpha at 50 uM
Reported endpoint: inhibition (%)

- Given smiles: "CCCCCCCCNCCCOc1ccc2ccccc2c1"
  inhibition / %: 11.4
- Given smiles: "CCCN(CCCOc1ccc2ccccc2c1)c1ccc(OC)cc1"
  inhibition / %: 10.9
- Given smiles: "CCN(CCCOc1ccc2ccccc2c1)c1ccc(OC)cc1"
  inhibition / %: 20.3
- Given smiles: "CCOC(=O)CN(CCCOc1ccc2ccccc2c1)c1ccc(OC)cc1"
  inhibition / %: 33.5
- Given smiles: "COc1ccc(N(C)CCCOc2ccc3ccccc3c2)cc1"
  inhibition / %: 22.5

1 = CCCCN(CCCOc1ccc2ccccc2c1)c1ccc(OC)cc1
2 = COc1ccc(NCCOc2ccc3ccccc3c2)cc1
// query Compare the recorded inhibition of 1 and 2 ; state which is larger. Identify your selection by its label.
// result 2

a = c1ccc(CNCCCOc2ccc3ccccc3c2)cc1
b = COc1ccc(NCCCCOc2ccc3ccccc3c2)cc1
// query Input pair: a , b . Output: entry with lower inhibition. State the label of the item chosen.
// result b

###

The following compounds are shown together with reported inhibition in vivo at 100 mg/kg values.
System: Rattus norvegicus
Assay: Antidiabetic activity in glucose loaded albino Sprague-Dawley rat model assessed as decrease in blood glucose level at 100 mg/kg, po
Format: functional
Report the value in % with no unit label.

// below: answered compounds
- Given smiles: "COc1ccc(NCCCCOc2ccc3ccccc3c2)cc1"
  Target or test system: "Rattus norvegicus"
  Value: 3.89
- Given smiles: "CCCN(CCCOc1ccc2ccccc2c1)c1ccc(OC)cc1"
  Target or test system: "Rattus norvegicus"
  Value: 11.6
- Given smiles: "COc1ccc(NCCOc2ccc3ccccc3c2)cc1"
  Target or test system: "Rattus norvegicus"
  Value: 10.6

Field: next compound
// compound `CCCCCCCCNCCCOc1ccc2ccccc2c1` , assay Rattus norvegicus, inhibition in vivo at 100 mg/kg value: 17

###

Reported inhibition in vivo at 300 µmol/kg values for a set of compounds
Tested on: Syrian golden hamster
Test: Inhibition of cholesterol level in Syrian golden hamster at 300 umol/kg after 10 days
Format: functional
Settings: Mesocricetus auratus, 240 h
Give just the numeric value; % need not be written.

- Given smiles: "CCOC(=O)CN(CCCOc1ccc2ccccc2c1)c1ccc(OC)cc1"
  inhibition in vivo at 300 µmol/kg / %: 22
- Given smiles: "c1ccc(CNCCOc2ccc3ccccc3c2)cc1"
  inhibition in vivo at 300 µmol/kg / %: 14
- Given smiles: "COc1ccc(N(CCCOc2ccc3ccccc3c2)CC(=O)O)cc1"
  inhibition in vivo at 300 µmol/kg / %: 21

Now let's try a different one.
For this compound ( `COc1ccc(NCCCOc2ccc3ccccc3c2)cc1` ), measured inhibition in vivo at 300 µmol/kg is 14

###

System: Syrian golden hamster
Experiment: Inhibition of triglyceride level in Syrian golden hamster at 300 umol/kg after 10 days
Format: functional
Conditions: Mesocricetus auratus, 240 h
Reported endpoint: inhibition in vivo at 300 µmol/kg (%)
Value expressed in %; do not type the unit.

Example cases with answers are listed next.
- Given smiles: "COc1ccc(NCCCOc2ccc3ccccc3c2)cc1"
  inhibition in vivo at 300 µmol/kg / %: 48
- Given smiles: "CCOC(=O)CN(CCCOc1ccc2ccccc2c1)c1ccc(OC)cc1"
  inhibition in vivo at 300 µmol/kg / %: 68
- Given smiles: "c1ccc(CNCCOc2ccc3ccccc3c2)cc1"
  inhibition in vivo at 300 µmol/kg / %: 37

Shifting focus to the molecule that follows.
Looking up `COc1ccc(N(CCCOc2ccc3ccccc3c2)CC(=O)O)cc1` , I see its inhibition in vivo at 300 µmol/kg listed as 44

###

Tested on: Rattus norvegicus
Assay: Antidiabetic activity in glucose loaded albino Sprague-Dawley rat model assessed as decrease in blood glucose level at 100 mg/kg, po
Format: functional
Reported endpoint: inhibition in vivo at 100 mg/kg (%)
# unit: % | format: bare number

Some molecules with known inhibition in vivo at 100 mg/kg results, for comparison:
- Given smiles: "c1ccc(CNCCCOc2ccc3ccccc3c2)cc1"
  inhibition in vivo at 100 mg/kg, %: 13.8
- Given smiles: "Cc1ccc(NCCOc2ccc3ccccc3c2)cc1"
  inhibition in vivo at 100 mg/kg, %: 2.45
- Given smiles: "CCCCN(CCCOc1ccc2ccccc2c1)c1ccc(OC)cc1"
  inhibition in vivo at 100 mg/kg, %: 13.5
- Given smiles: "c1ccc(CNCCOc2ccc3ccccc3c2)cc1"
  inhibition in vivo at 100 mg/kg, %: 37.6
- Given smiles: "COc1ccc(N(C)CCCOc2ccc3ccccc3c2)cc1"
  inhibition in vivo at 100 mg/kg, %: 8.2
- Given smiles: "c1ccc(CNCCCCOc2ccc3ccccc3c2)cc1"
  inhibition in vivo at 100 mg/kg, %: 8.89

Record `COc1ccc(NCCCOc2ccc3ccccc3c2)cc1` . Reported inhibition in vivo at 100 mg/kg: 33.6

###

Molecular target: Peroxisome proliferator-activated receptor delta (Homo sapiens) (UniProt Q03181)
Sequence (Q03181 whole entry): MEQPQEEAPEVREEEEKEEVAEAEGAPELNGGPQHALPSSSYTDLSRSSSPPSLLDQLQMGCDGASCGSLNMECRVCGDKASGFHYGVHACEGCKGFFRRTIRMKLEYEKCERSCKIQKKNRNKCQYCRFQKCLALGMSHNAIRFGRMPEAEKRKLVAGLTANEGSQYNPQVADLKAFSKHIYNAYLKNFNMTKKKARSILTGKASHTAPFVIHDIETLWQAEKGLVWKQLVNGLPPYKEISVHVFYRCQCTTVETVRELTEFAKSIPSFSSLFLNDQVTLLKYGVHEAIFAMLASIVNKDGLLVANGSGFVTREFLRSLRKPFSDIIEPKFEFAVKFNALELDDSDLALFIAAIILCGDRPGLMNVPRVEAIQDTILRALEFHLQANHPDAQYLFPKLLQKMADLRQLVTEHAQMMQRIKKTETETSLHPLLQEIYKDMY
Experiment: Inhibition of PPARdelta at 3 uM
Reported endpoint: inhibition (%)

Please review the following examples before continuing.
- Given smiles: "c1ccc(CNCCCOc2ccc3ccccc3c2)cc1"
  Reported endpoint: "inhibition"
  Value: 29.1
- Given smiles: "CCCCN(CCCOc1ccc2ccccc2c1)c1ccc(OC)cc1"
  Reported endpoint: "inhibition"
  Value: 8.4
- Given smiles: "CCOC(=O)CN(CCCOc1ccc2ccccc2c1)c1ccc(OC)cc1"
  Reported endpoint: "inhibition"
  Value: 29.6

1 = COc1ccc(NCCCOc2ccc3ccccc3c2)cc1
2 = CCCN(CCCOc1ccc2ccccc2c1)c1ccc(OC)cc1
// query Lab note: check whether 1 or 2 has the lower measured inhibition. Refer to your chosen entry by its label in the reply.
// result 2
(2: 9.6%, 1: 42.6%)

P = CCN(CCCOc1ccc2ccccc2c1)c1ccc(OC)cc1
Q = CCCCCCCCNCCCOc1ccc2ccccc2c1
// query Endpoint returns the identifier whose inhibition is numerically larger, either P or Q . Answer with the label corresponding to your selection.
// result P
(P: 17.3%, Q: 7.9%)

P = COc1ccc(NCCCCOc2ccc3ccccc3c2)cc1
Q = COc1ccc(NCCOc2ccc3ccccc3c2)cc1
// query Parameter check: reported inhibition is higher for which label, P or Q ? Answer by stating the label of the chosen item.
// result Q
(Q: 24.6%, P: 16.3%)

###

Biological target: Peroxisome proliferator-activated receptor gamma (Homo sapiens, UniProt P37231)
Sequence (P37231 whole entry): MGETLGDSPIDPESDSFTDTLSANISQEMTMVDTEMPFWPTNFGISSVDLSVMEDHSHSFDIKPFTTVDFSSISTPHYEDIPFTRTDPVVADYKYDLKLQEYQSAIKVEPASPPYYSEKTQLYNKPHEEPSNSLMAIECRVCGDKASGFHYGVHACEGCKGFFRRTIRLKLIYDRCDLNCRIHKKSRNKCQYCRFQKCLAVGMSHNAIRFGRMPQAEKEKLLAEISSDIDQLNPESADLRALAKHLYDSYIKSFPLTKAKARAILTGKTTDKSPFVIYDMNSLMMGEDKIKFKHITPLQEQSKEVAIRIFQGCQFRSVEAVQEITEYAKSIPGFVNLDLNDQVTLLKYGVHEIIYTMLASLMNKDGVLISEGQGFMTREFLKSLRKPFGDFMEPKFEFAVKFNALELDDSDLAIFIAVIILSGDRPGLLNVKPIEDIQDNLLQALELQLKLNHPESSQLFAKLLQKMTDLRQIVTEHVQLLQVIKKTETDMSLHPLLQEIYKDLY
Experiment: Binding affinity at PPARgamma
pEC50: −log10 of the molar value.
Reported endpoint: pEC50

- Given smiles: "c1ccc(CNCCOc2ccc3ccccc3c2)cc1"
  pEC50: 6.40

I = CCOC(=O)CN(CCCOc1ccc2ccccc2c1)c1ccc(OC)cc1
II = COc1ccc(NCCCOc2ccc3ccccc3c2)cc1
// query Which of the two items, I and II , has the greater recorded pEC50? Please reply using the label of the selected record.
// result I
(I: 5.32, II: 4.47)

###

Biological target: Peroxisome proliferator-activated receptor alpha (Homo sapiens)
Assay: Inhibition of PPARalpha at 50 uM
Reported endpoint: inhibition (%)

- Given smiles: "COc1ccc(NCCCOc2ccc3ccccc3c2)cc1"
  Target or test system: "Peroxisome proliferator-activated receptor alpha (Homo sapiens)"
  Reported endpoint: "inhibition"
  Value: 44.5
- Given smiles: "c1ccc(CNCCCCOc2ccc3ccccc3c2)cc1"
  Target or test system: "Peroxisome proliferator-activated receptor alpha (Homo sapiens)"
  Reported endpoint: "inhibition"
  Value: 21.3

P = COc1ccc(N(CCCOc2ccc3ccccc3c2)CC(=O)O)cc1
Q = CCO[C@@H](Cc1ccc(OCCc2ccc(OS(C)(=O)=O)cc2)cc1)C(=O)O
// query Could you kindly indicate whether P or Q has the higher inhibition value? I would appreciate it if you answered with the label of your choice.
// result Q
(Q: 55.5%, P: 25.4%)

###

Form field: inhibition in vivo at 100 mg/kg (one value per entry).
Test system: Rattus norvegicus
Assay: Antidiabetic activity in glucose loaded albino Sprague-Dawley rat model assessed as decrease in blood glucose level at 100 mg/kg, po
Format: functional
Express your answer in %, writing the number without its unit.

Readout inhibition in vivo at 100 mg/kg for `COc1cccc(CNCCCOc2ccc3ccccc3c2)c1` , test system Rattus norvegicus, was 1.23

Case `COc1ccc(N(CCCOc2ccc3ccccc3c2)CC(=O)O)cc1` , Rattus norvegicus, inhibition in vivo at 100 mg/kg recorded as 15.5

Reading of inhibition in vivo at 100 mg/kg for `CCOC(=O)CN(CCCOc1ccc2ccccc2c1)c1ccc(OC)cc1` with Rattus norvegicus: 25.9

Param item: `CCN(CCCOc1ccc2ccccc2c1)c1ccc(OC)cc1` ; param system: Rattus norvegicus; output inhibition in vivo at 100 mg/kg: 6.88

Test item `Cc1ccc(NCCCCOc2ccc3ccccc3c2)cc1` ; Rattus norvegicus; reported inhibition in vivo at 100 mg/kg was 3.21
